# Test System: Antithrombin III (plasma purified human AT-III, Molecular Innovations)
# Experiment: AT-III/UFH inhibition: FIXa variant incubated with AT-III dilutions in excess unfractionated heparin, residual cleavage of Mesyl-D-CHG-Gly-Arg-AMC; K0.5 = AT-III concentration for 50% inhibition (IC50)

{"Protein": "FIXa-R318Y/R338E/R403E/E410N (protein) chain 1: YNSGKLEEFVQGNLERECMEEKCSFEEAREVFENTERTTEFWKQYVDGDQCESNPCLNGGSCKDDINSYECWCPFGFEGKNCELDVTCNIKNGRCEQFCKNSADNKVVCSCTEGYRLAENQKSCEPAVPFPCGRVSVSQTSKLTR chain 2: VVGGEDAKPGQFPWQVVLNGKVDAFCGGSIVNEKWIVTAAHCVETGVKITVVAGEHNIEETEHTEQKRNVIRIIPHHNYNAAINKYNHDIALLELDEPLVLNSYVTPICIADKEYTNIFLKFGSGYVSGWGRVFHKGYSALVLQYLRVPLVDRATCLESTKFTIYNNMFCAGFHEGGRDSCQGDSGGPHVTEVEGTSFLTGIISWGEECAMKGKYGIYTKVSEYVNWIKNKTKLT", "Measurement Units": "µM", "K0.5": 5.88}
{"Protein": "FIXa-D203N/F205T/R338E/R403E (protein) chain 1: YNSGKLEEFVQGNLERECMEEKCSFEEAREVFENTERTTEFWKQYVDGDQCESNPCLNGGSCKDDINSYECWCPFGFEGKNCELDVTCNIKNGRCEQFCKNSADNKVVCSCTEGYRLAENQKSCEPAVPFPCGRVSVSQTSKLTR chain 2: VVGGEDAKPGQFPWQVVLNGKVNATCGGSIVNEKWIVTAAHCVETGVKITVVAGEHNIEETEHTEQKRNVIRIIPHHNYNAAINKYNHDIALLELDEPLVLNSYVTPICIADKEYTNIFLKFGSGYVSGWGRVFHKGRSALVLQYLRVPLVDRATCLESTKFTIYNNMFCAGFHEGGRDSCQGDSGGPHVTEVEGTSFLTGIISWGEECAMKGKYGIYTKVSEYVNWIKEKTKLT", "Measurement Units": "µM", "K0.5": 1.52}
{"Protein": "FIXa-D203N/F205T/E410N (protein) chain 1: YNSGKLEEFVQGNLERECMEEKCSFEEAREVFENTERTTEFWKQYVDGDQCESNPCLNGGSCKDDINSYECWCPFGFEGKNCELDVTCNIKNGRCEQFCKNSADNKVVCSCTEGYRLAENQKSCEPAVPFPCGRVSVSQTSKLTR chain 2: VVGGEDAKPGQFPWQVVLNGKVNATCGGSIVNEKWIVTAAHCVETGVKITVVAGEHNIEETEHTEQKRNVIRIIPHHNYNAAINKYNHDIALLELDEPLVLNSYVTPICIADKEYTNIFLKFGSGYVSGWGRVFHKGRSALVLQYLRVPLVDRATCLRSTKFTIYNNMFCAGFHEGGRDSCQGDSGGPHVTEVEGTSFLTGIISWGEECAMKGKYGIYTKVSRYVNWIKNKTKLT", "Measurement Units": "µM", "K0.5": 0.377}
{"Protein": "FIXa-D104N/K106S/R318Y/R338E/E410N (protein) chain 1: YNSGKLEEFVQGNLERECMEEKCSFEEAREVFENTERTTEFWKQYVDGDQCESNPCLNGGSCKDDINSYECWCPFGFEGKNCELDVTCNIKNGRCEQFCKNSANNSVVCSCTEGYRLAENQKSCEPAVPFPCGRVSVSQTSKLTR chain 2: VVGGEDAKPGQFPWQVVLNGKVDAFCGGSIVNEKWIVTAAHCVETGVKITVVAGEHNIEETEHTEQKRNVIRIIPHHNYNAAINKYNHDIALLELDEPLVLNSYVTPICIADKEYTNIFLKFGSGYVSGWGRVFHKGYSALVLQYLRVPLVDRATCLESTKFTIYNNMFCAGFHEGGRDSCQGDSGGPHVTEVEGTSFLTGIISWGEECAMKGKYGIYTKVSRYVNWIKNKTKLT", "Measurement Units": "µM", "K0.5": 6.33}
{"Protein": "FIXa-D203N/F205T/R338A (protein) chain 1: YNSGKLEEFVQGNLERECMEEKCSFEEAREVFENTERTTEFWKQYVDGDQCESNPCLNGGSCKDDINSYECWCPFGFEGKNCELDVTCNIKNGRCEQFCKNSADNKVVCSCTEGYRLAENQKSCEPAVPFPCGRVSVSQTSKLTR chain 2: VVGGEDAKPGQFPWQVVLNGKVNATCGGSIVNEKWIVTAAHCVETGVKITVVAGEHNIEETEHTEQKRNVIRIIPHHNYNAAINKYNHDIALLELDEPLVLNSYVTPICIADKEYTNIFLKFGSGYVSGWGRVFHKGRSALVLQYLRVPLVDRATCLASTKFTIYNNMFCAGFHEGGRDSCQGDSGGPHVTEVEGTSFLTGIISWGEECAMKGKYGIYTKVSRYVNWIKEKTKLT", "Measurement Units": "µM", "K0.5": 0.423}
{"Protein": "FIXa-D203N/F205T/R318Y (protein) chain 1: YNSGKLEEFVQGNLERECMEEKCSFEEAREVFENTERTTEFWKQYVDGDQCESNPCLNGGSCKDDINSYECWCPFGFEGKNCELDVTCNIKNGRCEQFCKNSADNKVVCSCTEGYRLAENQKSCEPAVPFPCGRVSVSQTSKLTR chain 2: VVGGEDAKPGQFPWQVVLNGKVNATCGGSIVNEKWIVTAAHCVETGVKITVVAGEHNIEETEHTEQKRNVIRIIPHHNYNAAINKYNHDIALLELDEPLVLNSYVTPICIADKEYTNIFLKFGSGYVSGWGRVFHKGYSALVLQYLRVPLVDRATCLRSTKFTIYNNMFCAGFHEGGRDSCQGDSGGPHVTEVEGTSFLTGIISWGEECAMKGKYGIYTKVSRYVNWIKEKTKLT", "Measurement Units": "µM", "K0.5": 7.23}
